From: PubChem BioAssay AID2541

Molecular target: NADPH oxidase 1 (Homo sapiens) (UniProt Q9Y5S8)
Sequence (Q9Y5S8 whole entry, looked up): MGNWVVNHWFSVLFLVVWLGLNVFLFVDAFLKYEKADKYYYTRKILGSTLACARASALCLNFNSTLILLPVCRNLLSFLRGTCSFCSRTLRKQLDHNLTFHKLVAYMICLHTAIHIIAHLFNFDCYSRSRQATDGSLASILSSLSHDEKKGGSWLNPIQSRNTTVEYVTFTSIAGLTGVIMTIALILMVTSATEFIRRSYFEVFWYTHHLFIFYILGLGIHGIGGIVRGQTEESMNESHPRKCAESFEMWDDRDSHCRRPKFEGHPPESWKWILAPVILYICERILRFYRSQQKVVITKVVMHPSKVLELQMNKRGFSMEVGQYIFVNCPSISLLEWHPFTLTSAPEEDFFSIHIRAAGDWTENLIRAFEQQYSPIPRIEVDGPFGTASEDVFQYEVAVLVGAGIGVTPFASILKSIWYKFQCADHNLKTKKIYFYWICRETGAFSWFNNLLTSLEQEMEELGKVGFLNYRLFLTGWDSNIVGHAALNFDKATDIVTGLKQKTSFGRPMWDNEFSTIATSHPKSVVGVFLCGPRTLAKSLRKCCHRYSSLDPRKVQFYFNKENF
Test: NOX1 inhibitors in colonic epithelial cells, confirmation, luminescence, HT29 cells (AID 2541)
Conditions: luminol ROS chemiluminescence, 1 h, at 3.3 µM, active compounds read high
// reported inhibition per item
Hi! Could you send only the number? It should be in %, unit omitted.

{"molecule": "NS(=O)(=O)c1ccc(NNC(=O)c2c(F)cccc2Cl)cc1", "experimental_target": "NADPH oxidase 1 (Homo sapiens) (UniProt Q9Y5S8)", "inhibition, %": 74.3}
{"molecule": "CSC1=NS(=O)(=O)c2c(C)nn(C)c2S1", "experimental_target": "NADPH oxidase 1 (Homo sapiens) (UniProt Q9Y5S8)", "inhibition, %": 33.3}
{"molecule": "CCC(CO)Nc1nc2c([nH]1)c(=O)n(C)c(=O)n2C (configuration not stated)", "experimental_target": "NADPH oxidase 1 (Homo sapiens) (UniProt Q9Y5S8)", "inhibition, %": -32.2}

IN: Enter reported inhibition observed with NADPH oxidase 1 (Homo sapiens) (UniProt Q9Y5S8) for "CCC(=O)N1c2cc(Cl)ccc2-n2c(nn(C(=O)CC)c2=O)N1C(=O)CC"
OUT: 81.7

IN: Enter reported inhibition observed with NADPH oxidase 1 (Homo sapiens) (UniProt Q9Y5S8) for "O=[N+]([O-])c1cc(C(F)(F)F)ccc1Oc1ccc(-c2nnco2)cc1"
OUT: 58.8

IN: Enter reported inhibition observed with NADPH oxidase 1 (Homo sapiens) (UniProt Q9Y5S8) for "O=C(NNc1c([N+](=O)[O-])cc(C(F)(F)F)cc1[N+](=O)[O-])c1ccccc1-n1cccc1"
OUT: 78

IN: Enter reported inhibition observed with NADPH oxidase 1 (Homo sapiens) (UniProt Q9Y5S8) for "CN(NC=C(C#N)C#N)c1ccccc1[N+](=O)[O-]"
OUT: 100

IN: Enter reported inhibition observed with NADPH oxidase 1 (Homo sapiens) (UniProt Q9Y5S8) for c1ccc2c(c1)NC(c1ccc3c(c1)OCO3)O2 (configuration not stated)
OUT: -39.8

IN: Enter reported inhibition observed with NADPH oxidase 1 (Homo sapiens) (UniProt Q9Y5S8) for "N#Cc1c(N)sc2c1CCc1ccccc1-2"
OUT: 103

----------
// reported inhibition per item
Target: NADPH oxidase 1 (Homo sapiens) (UniProt Q9Y5S8)
Assay: NOX1 inhibitors in colonic epithelial cells, confirmation, luminescence, HT29 cells (AID 2541)
Settings: luminol ROS chemiluminescence, 1 h, at 3.3 µM, active compounds read high
Active and inactive are the calls of the source.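 How the source made its calls: active means inhibition of at least 50%; inactive means inhibition below 50%.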

{"compound": "Nc1nc2[nH]c(=S)[nH]c2c(=O)[nH]1", "inhibition": "29.6% (inactive)"}
{"compound": "COc1ccccc1NNC(=O)c1cc(C(C)(C)C)nn1Cc1ccccc1", "inhibition": "92.4%"}
{"compound": "S=C(NNc1nccc(-c2cccnc2)n1)Nc1ccccc1", "inhibition": "88.4%"}
{"compound": "Nc1nc(NCc2ccccn2)n[nH]1", "inhibition": "78.6%"}

Next compound, please.
IN: Could you tell me which inhibition is on file for "COCCCNC(=S)NNC(=S)Nc1ccccc1" ?
OUT: 70.1%

----------
Biological target: NADPH oxidase 1 (Homo sapiens)
Assay: NOX1 inhibitors in colonic epithelial cells, confirmation, luminescence, HT29 cells (AID 2541)
Settings: luminol ROS chemiluminescence, 1 h, at 3.3 µM, active compounds read high
reported_metric: inhibition (%)
Hi! Could you send only the number? It should be in %, unit omitted.

Take a look at these entries with their results.
{"compound": "Cc1cc(C(=O)NNc2cc(Cl)ccc2Cl)no1", "experimental_target": "NADPH oxidase 1 (Homo sapiens)", "reported_metric": "inhibition", "meas_value": 108}
{"compound": "Cc1cc(S(=O)(=O)NNc2ncnc3cc(C(C)(C)C)sc23)c(C)cc1Cl", "experimental_target": "NADPH oxidase 1 (Homo sapiens)", "reported_metric": "inhibition", "meas_value": 71}

IN: Could you tell me which inhibition is on file for "CN(C)c1ccc(/C=N/Nc2c(Cl)cncc2Cl)cc1" ?
OUT: 73.6

IN: Could you tell me which inhibition is on file for "Cc1csc2ncnc(NNS(=O)(=O)c3cc(C(F)(F)F)cc(C(F)(F)F)c3)c12" ?
OUT: 81.6

IN: Could you tell me which inhibition is on file for "COc1cccc(NC(=S)NNc2ccc([N+](=O)[O-])cc2)c1" ?
OUT: 89.2

IN: Could you tell me which inhibition is on file for "Cn1ncc(C(=O)NC(=O)Nc2ccc(F)cc2)c1[N+](=O)[O-]" ?
OUT: 6.3

IN: Could you tell me which inhibition is on file for "O=C(Oc1ccccc1N1CCCCC1)c1ccco1" ?
OUT: 95

----------
// reported inhibition per item
Molecular target: NADPH oxidase 1 (Homo sapiens)
Experiment: NOX1 inhibitors in colonic epithelial cells, confirmation, luminescence, HT29 cells (AID 2541)
Details: luminol ROS chemiluminescence, 1 h, at 3.3 µM, active compounds read high
Hi! Could you send only the number? It should be in %, unit omitted.

{"compound": "O=C1c2ccccc2C(=O)N1CNc1ccc(N2CCOCC2)cc1", "reported_metric": "inhibition", "unit_descriptor": "%", "meas_value": 11.1}

Next molecule, please.
IN: Enter reported inhibition observed with NADPH oxidase 1 (Homo sapiens) for "Cc1ccccc1C(=O)Oc1ccc(-c2csnn2)cc1"
OUT: 54.9

----------
Target: NADPH oxidase 1 (Homo sapiens)
Assay: NOX1 inhibitors in colonic epithelial cells, confirmation, luminescence, HT29 cells (AID 2541)
Settings: luminol ROS chemiluminescence, 1 h, at 3.3 µM, active compounds read high
Assign class by inhibition: not lower than 80% means t; lower than 80% means f.

{"molecule": "COc1cc2ncnc(NNC(=O)c3cccs3)c2cc1OC", "experimental_target": "NADPH oxidase 1 (Homo sapiens)", "group": "f"}
{"molecule": "CC1=CC(=O)C(CCC2=CC(=O)C(C)=CC2=O)=CC1=O", "experimental_target": "NADPH oxidase 1 (Homo sapiens)", "group": "f"}
{"molecule": "Nc1nc(Nc2ccccc2)n[nH]1", "experimental_target": "NADPH oxidase 1 (Homo sapiens)", "group": "f"}

IN: Does "CC(=O)/C(C=Nc1cc(C)c(O)c(Cl)c1)=C(\C)O" have a reported inhibition of at least 80%?
OUT: f

IN: Does "FC(F)(F)c1ccc2c(c1)Nc1ccccc1S2" have a reported inhibition of at least 80%?
OUT: t

IN: Does "O=C(N/N=C/c1ccc(O)cc1)N/N=C/c1ccc(O)cc1" have a reported inhibition of at least 80%?
OUT: f

IN: Does "COc1ccc(Cl)cc1NC(=O)Nc1ccc(N(C)C)cc1" have a reported inhibition of at least 80%?
OUT: t

IN: Does "CCN(CC)c1ccc(NC(=O)C2CCCCC2)c(N(CC)CC)n1" have a reported inhibition of at least 80%?
OUT: f

IN: Does "COC(=O)c1sccc1-c1ccc(CN2CCCc3cc(OC)ccc32)o1" have a reported inhibition of at least 80%?
OUT: f

IN: Does "CC(=O)c1ccc(NCN2C(=O)/C(=C\N(C)C)NC2=S)cc1" have a reported inhibition of at least 80%?
OUT: f

IN: Does "O=C(Oc1ccccc1N1CCCCC1)c1sc2ccccc2c1Cl" have a reported inhibition of at least 80%?
OUT: t

IN: Does "Cn1nc(-c2ccccc2)c(O)c(N=Nc2ccccc2)c1=O" have a reported inhibition of at least 80%?
OUT: t

IN: Does "O=C(Nc1ccc(Cl)cc1)Oc1ccccc1N1CCSCC1" have a reported inhibition of at least 80%?
OUT: f

----------
// reported inhibition per item
Biological target: NADPH oxidase 1 (Homo sapiens) (UniProt Q9Y5S8)
Test: NOX1 inhibitors in colonic epithelial cells, confirmation, luminescence, HT29 cells (AID 2541)
Conditions: luminol ROS chemiluminescence, 1 h, at 3.3 µM, active compounds read high
Hi! Could you send only the number? It should be in %, unit omitted.

Take a look at these entries with their results.
{"compound": "O=C(O)/C(=N/Nc1ccccc1O)c1ccccc1", "reported_metric": "inhibition", "meas_value": 62.5}
{"compound": "O=C(Oc1ccccc1N1CCOCC1)c1cccs1", "reported_metric": "inhibition", "meas_value": 87.8}

Next molecule, please.
IN: Could you tell me which inhibition is on file for "O=C(Nc1ccc(N2CCCCC2)cc1)Nc1ccccc1OC(F)(F)F" ?
OUT: 73.9

----------
Biological target: NADPH oxidase 1 (Homo sapiens)
Assay: NOX1 inhibitors in colonic epithelial cells, confirmation, luminescence, HT29 cells (AID 2541)
Conditions: luminol ROS chemiluminescence, 1 h, at 3.3 µM
Calls of active or inactive are those of the source.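 How the source made its calls: active means inhibition of at least 50%; inactive means inhibition below 50%.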
Please state which outcome applies, choosing from 1.0 = active, 0.0 = inactive

{"compound": "COc1ccc(OC)c(S(=O)(=O)c2ccc([N+](=O)[O-])cc2Cl)c1", "group": 0.0}
{"compound": "O=C(Oc1cccc2[nH]ccc12)c1ccc(C(F)(F)F)cc1", "group": 0.0}
{"compound": "COC(=O)C1=C(Nc2ccc(O)cc2)CSC1", "group": 1.0}
{"compound": "CC(=O)Oc1ccc(OC(C)=O)c2c1[C@@H]1C=C[C@H]2CC1", "group": 1.0}
{"compound": "O=c1c(Cl)c2oc3ccccc3nc-2c2ccccc12", "group": 1.0}

IN: Would you mind telling me which call this test gave "CCOC(=O)C(=CNNc1ccnc2cc(Cl)ccc12)C(=O)OCC" ?
OUT: 1.0

IN: Would you mind telling me which call this test gave "Cn1cnc(S(=O)(=O)Nc2ccc(N3CCCCC3)cc2)c1" ?
OUT: 1.0
